TESTED TARGET: T1, recombinant purified human IL-12 p70 (human, UniProt P29459 23-219)
T1 construct: Disulfide-linked heterodimer of p35 and p40; also called hIL-12; Hu IL-12
T1 sequence 1: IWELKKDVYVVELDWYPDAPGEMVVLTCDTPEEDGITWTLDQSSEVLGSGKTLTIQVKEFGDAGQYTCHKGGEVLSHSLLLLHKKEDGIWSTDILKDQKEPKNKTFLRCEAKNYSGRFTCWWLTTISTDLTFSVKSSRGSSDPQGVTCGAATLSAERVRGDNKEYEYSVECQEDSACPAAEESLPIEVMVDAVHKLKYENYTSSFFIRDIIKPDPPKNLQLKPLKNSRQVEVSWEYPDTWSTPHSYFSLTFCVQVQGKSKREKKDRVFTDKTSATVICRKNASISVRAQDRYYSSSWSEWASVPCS
T1 sequence 2: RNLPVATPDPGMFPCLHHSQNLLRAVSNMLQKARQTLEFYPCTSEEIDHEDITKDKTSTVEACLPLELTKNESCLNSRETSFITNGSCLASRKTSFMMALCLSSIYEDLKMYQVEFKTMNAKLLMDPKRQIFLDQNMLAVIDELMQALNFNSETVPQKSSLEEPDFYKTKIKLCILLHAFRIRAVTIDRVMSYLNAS
ASSAY DETAILS: SPR (Biacore) as in Example 1.1.B, human IL-12p70

| BINDER | koff |
| --- | --- |
| CDR grafted anti IL-12p40 antibody 3G7.2 (antibody, human IgG1, kappa, L234A L235A, V domains shown, Full-length CDR-grafted antibody, COS cells) VH: EVQLVQSGAEVKKPGASVKVSCKASGYTFTDYWIEWVRQAPGQGLEWMGGFSHGSGSTNYNEKFKGRVTMTTDTSTSTAYMELRSLRSDDTAVYYCARRRFRGMDYWGQGTTVTVSS VL: EIVMTQSPATLSVSPGERATLSCKASQSVSNDVAWYQQKPGQAPRLLIYYASNRYTGIPARFSGSGSGTEFTLTISSLQSEDFAVYYCQQDYSSPWSFGGGTKVEIKR | 0.00014 s⁻¹ |
| CDR grafted anti IL-12p40 antibody 1D4.2 (antibody, human IgG1, kappa, L234A L235A, V domains shown, Full-length CDR-grafted antibody, COS cells) VH: EVTLKESGPVLVKPTETLTLTCTVSGFSLSKSVMGVSWIRQPPGKALEWLAHIYWDDDKYYNPSLKSRLTISKDTSKSQVVLTMTNMDPVDTATYYCARRGIRSAMDYWGQGTTVTVSS VL: EIVMTQSPATLSVSPGERATLSCKASQSVSNDVAWYQQKPGQAPRLLIYYASNRYTGIPARFSGSGSGTEFTLTISSLQSEDFAVYYCQQDYNSPWTFGGGTKVEIKR | 0.00026 s⁻¹ |
| CDR grafted anti IL-12p40 antibody 1A6.2 (antibody, human IgG1, kappa, L234A L235A, V domains shown, Full-length CDR-grafted antibody, COS cells) VH: EVTLKESGPVLVKPTETLTLTCTVSGFSLSTSGMGVSWIRQPPGKALEWLAHIWWDGDNYYNPSLKSRLTISKDTSKSQVVLTMTNMDPVDTATYYCARRTRVNYAMDYWGQGTTVTVSS VL: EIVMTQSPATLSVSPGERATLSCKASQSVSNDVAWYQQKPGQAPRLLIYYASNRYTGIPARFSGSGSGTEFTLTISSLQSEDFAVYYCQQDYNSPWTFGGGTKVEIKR | 5.4e-05 s⁻¹ |
| CDR grafted anti IL-12p40 antibody 1A6.5 (antibody, human IgG1, kappa, L234A L235A, V domains shown, Full-length CDR-grafted antibody, COS cells) VH: EVTLRESGPALVKPTQTLTLTCTFSGFSLSTSGMGVSWIRQPPGKALEWLAHIWWDGDNYYNPSLKSRLTISKDTSKNQVVLTMTNMDPVDTATYYCARRTRVNYAMDYWGQGTTVTVSS VL: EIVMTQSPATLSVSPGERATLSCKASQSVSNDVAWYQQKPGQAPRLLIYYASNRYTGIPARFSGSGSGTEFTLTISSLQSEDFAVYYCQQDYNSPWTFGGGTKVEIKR | 5.6e-05 s⁻¹ |
| CDR grafted anti IL-12p40 antibody 1D4.3 (antibody, human IgG1, kappa, L234A L235A, V domains shown, Full-length CDR-grafted antibody, COS cells) VH: EVTLRESGPALVKPTQTLTLTCTFSGFSLSKSVMGVSWIRQPPGKALEWLAHIYWDDDKYYNPSLKSRLTISKDTSKNQVVLTMTNMDPVDTATYYCARRGIRSAMDYWGQGTTVTVSS VL: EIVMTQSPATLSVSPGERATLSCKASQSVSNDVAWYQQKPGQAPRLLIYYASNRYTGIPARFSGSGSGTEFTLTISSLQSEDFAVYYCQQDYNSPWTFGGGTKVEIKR | 5.3e-05 s⁻¹ |
